# assay protocol: BSK_3C_uPAR: BioMAP Diversity Plus: 3C Assay for Urokinase-type plasminogen activator receptor (uPAR) Biomarker Activity (AID 2282998)
# experimental context: BioMAP 3C HUVEC, uPAR biomarker ELISA; actives raise or lower the signal
The source made the active and inactive calls. The calls were made as follows: active = hit-call score of the fitted dose curve at least 0.9, where 1 is the maximum; inactive = score below 0.9.
endpoint name: AC50

O=P(O)(O)CCC(F)(F)C(F)(F)C(F)(F)C(F)(F)C(F)(F)C(F)(F)F | inactive
O=C(O)CCC(F)(F)C(F)(F)C(F)(F)C(F)(F)C(F)(F)F | inactive
CC(C)(C)c1ccc(O)c(O)c1 | inactive
COC1=CC(=O)C[C@@H](C)[C@]12Oc1c(Cl)c(OC)cc(OC)c1C2=O | inactive

QUERY: Any idea what AC50 was measured for "Clc1ccc(Nc2nnc(Cc3ccncc3)c3ccccc23)cc1" ?
RESULT: inactive

QUERY: I would be grateful if you could share the reported AC50 for "CC(=O)Nc1ccc(O)cc1" .
RESULT: inactive

QUERY: What does the data say about its AC50? Entry: "OCCN1CN(CCO)CN(CCO)C1"
RESULT: 32.6 µM (active)

QUERY: Form field: reported AC50 of "OCC(F)(F)C(F)(F)C(F)(F)C(F)(F)C(F)(F)C(F)(F)C(F)(F)C(F)(F)C(F)(F)C(F)(F)C(F)(F)F"
RESULT: inactive

QUERY: I'd like to know its AC50. The molecule in question is "CCCCCCCCCCCCCCC"
RESULT: inactive

QUERY: Using the record for "O=C1NS(=O)(=O)c2ccccc21" , report its AC50.
RESULT: inactive

QUERY: Entry "NC(=NCCCCCCN=C(N)/N=C(\N)Nc1ccc(Cl)cc1)/N=C(\N)Nc1ccc(Cl)cc1" : reported AC50 = ?
RESULT: 2.61 µM (active)

QUERY: Data request, read-out AC50, for "C[C@]12CC[C@@H]3c4ccc(O)cc4CC[C@H]3[C@@H]1C[C@@H](O)[C@@H]2O"
RESULT: inactive

QUERY: Recorded AC50 for "O=C(c1ccccc1)c1ccccc1" , please?
RESULT: inactive

QUERY: Quick one: AC50 of C=CC(C)(CCC=C(C)C)OC(C)=O (stereo not given) ?
RESULT: 31.5 µM (active)

QUERY: Fill blank: measured AC50 of the molecule "COc1cccc(O)c1" is ____.
RESULT: inactive

QUERY: Which measured AC50 value corresponds to "O=C1c2ccc(O)c(O)c2C(=O)c2c(O)ccc(O)c21" ?
RESULT: 8.14 µM (active)

QUERY: Bench note: what AC50 did "O=C(NO)c1ccccc1" show?
RESULT: inactive

QUERY: For "CCCCCc1ccc(O)cc1" , what is its reported AC50?
RESULT: 13.8 µM (active)

QUERY: Record request: AC50 value, item "C=CC(=C)CC/C=C(\C)CCC=C(C)C"
RESULT: inactive

QUERY: Please look up its AC50: "O=P(O)(O)CCC(F)(F)C(F)(F)C(F)(F)C(F)(F)C(F)(F)C(F)(F)C(F)(F)C(F)(F)F"
RESULT: inactive

QUERY: Name the recorded AC50 for "CN(Cc1cnc2nc(N)nc(N)c2n1)c1ccc(C(=O)N[C@@H](CCC(=O)O)C(=O)O)cc1" .
RESULT: inactive

QUERY: What value of AC50 has been reported for the following molecule? "O=C(NCc1ncc(C(F)(F)F)cc1Cl)c1c(Cl)cccc1Cl"
RESULT: inactive
